Would you mind telling me the reported pIC50 of each entry?
- Tested on: Staphylococcus aureus ATCC 25923
- assayRemarks: Antibacterial broth microdilution growth inhibition (OD600) against S. aureus
- Format: cell-based
- details: Staphylococcus aureus, ATCC25923, 20 h, isolated compounds; S. aureus ATCC 25923; 20 h, 37 °C; read-out: IC50 SA
Numbers only, as −log10 of the molar value.

>  <compound>
COC1=C(C2=C(OC)C(=O)c3cc4c(c(O)c3C2=O)C(=O)OC(C)C4)C(=O)c2c(cc3c(c2O)C(=O)OC(C)C3)C1=O (stereo not drawn)

>  <systemTested>
Staphylococcus aureus ATCC 25923

>  <readoutValue>
4.72

$$$$

Then this compound:
get_value(item= COC1=C(c2c(OC)cc3cc4c(c(O)c3c2O)C(=O)OC(C)C4)C(=O)c2c(cc3c(c2O)C(=O)OC(C)C3)C1=O (stereo not drawn) , readout=pIC50) returns 5.49
